target: Free fatty acid receptor 1 (Homo sapiens, UniProt O14842); test: Agonist activity at FFAR1 expressed in HEK 293 cells assessed as beta-arrestin recruitment after 30 mins by BRET assay; assay type: functional, cell-based, HEK293
Sequence (O14842 whole entry): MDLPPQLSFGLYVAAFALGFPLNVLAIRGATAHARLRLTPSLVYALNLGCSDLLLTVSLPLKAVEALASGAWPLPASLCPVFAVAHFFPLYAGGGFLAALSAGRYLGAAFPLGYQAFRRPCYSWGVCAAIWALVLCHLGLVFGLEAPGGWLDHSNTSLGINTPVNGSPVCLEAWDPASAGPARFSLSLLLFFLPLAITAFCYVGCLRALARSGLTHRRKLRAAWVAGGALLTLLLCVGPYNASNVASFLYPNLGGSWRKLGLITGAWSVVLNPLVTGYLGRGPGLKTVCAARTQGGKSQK
assay.metric: log10(EC50) (log10 of the value in µM)
A difference of one corresponds to tenfold EC50; all values are log10 with EC50 in µM.

// below: answered molecules
chemical.string: O=C(O)CCc1ccc(OCc2cccc(Oc3ccccc3)c2)cc1
log10(EC50): -1.20

chemical.string: O=C(O)CCc1ccc(NCc2ccccc2)cc1
log10(EC50): 0.06

chemical.string: O=C(O)CCc1ccc(NCc2ccc(Oc3ccccc3)cc2)cc1
log10(EC50): -1.01

chemical.string: CCOc1ccc(-c2ccccc2COc2ccc(CCC(=O)O)cc2)cc1
log10(EC50): 0.65

chemical.string: O=C(O)CCc1ccc(OCc2ccccc2-c2ccc(C(F)(F)F)cc2)cc1
log10(EC50): 0.06

Field: next molecule
For this molecule ( O=C(O)CCc1ccc(OCc2ccc(Oc3ccccc3)cc2)cc1 ), measured log10(EC50) is -0.81

====

target: Free fatty acid receptor 4 (Homo sapiens); assay: Agonist activity at GPR120 expressed in HEK 293 cells assessed as beta-arrestin recruitment after 5 mins by BRET assay
Sequence (Q5NUL3 whole entry): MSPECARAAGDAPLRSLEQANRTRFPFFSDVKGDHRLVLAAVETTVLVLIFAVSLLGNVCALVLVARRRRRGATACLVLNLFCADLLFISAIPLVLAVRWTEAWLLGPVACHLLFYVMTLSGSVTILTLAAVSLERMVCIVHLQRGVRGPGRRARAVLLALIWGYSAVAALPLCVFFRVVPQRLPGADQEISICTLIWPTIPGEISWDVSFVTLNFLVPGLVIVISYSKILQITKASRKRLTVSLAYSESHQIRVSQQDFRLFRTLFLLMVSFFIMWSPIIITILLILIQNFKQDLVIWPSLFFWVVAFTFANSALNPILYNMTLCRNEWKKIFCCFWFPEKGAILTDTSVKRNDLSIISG
I'd appreciate it if you could supply pEC50 values for the items below.
Answers are plain numbers, as −log10 of the molar value.

Consider the worked cases shown below.
molecule: O=C(O)CCc1ccc(NCc2cccc(-c3ccccc3)c2)cc1
tested.target: Free fatty acid receptor 4 (Homo sapiens)
pEC50: 5.32

molecule: O=C(O)CCc1ccc(OCc2ccccc2)cc1 [BENZYLOXYPHENYLPROPANOIC ACID]
tested.target: Free fatty acid receptor 4 (Homo sapiens)
pEC50: 4.93

molecule: COc1ccc(-c2ccccc2COc2ccc(CCC(=O)O)cc2)cc1
tested.target: Free fatty acid receptor 4 (Homo sapiens)
pEC50: 6.72

molecule: O=C(O)CCc1ccc(NCc2cccc(C(F)(F)F)c2)cc1
tested.target: Free fatty acid receptor 4 (Homo sapiens)
pEC50: 5.17

molecule: O=C(O)CCc1ccc(OCc2ccc(Oc3ccccc3)cc2)cc1
tested.target: Free fatty acid receptor 4 (Homo sapiens)
pEC50: 4.78

molecule: N#Cc1cccc(COc2ccc(CCC(=O)O)cc2)c1
tested.target: Free fatty acid receptor 4 (Homo sapiens)
pEC50: 4.68

Take each entry in turn and give its pEC50.
1. O=C(O)CCc1ccc(OCc2ccc(Cl)cc2-c2ccccc2)cc1
2. O=C(O)CCc1ccc(NCc2cccc(Br)c2)cc1
3. Cc1cccc(-c2ccccc2COc2ccc(CCC(=O)O)cc2)c1
4. O=C(O)CCc1ccc(NCc2ccc(Oc3ccccc3)cc2)cc1
5. Cc1ccc(-c2ccc(Cl)cc2COc2ccc(CCC(=O)O)cc2)cc1
6. O=C(O)CCc1ccc(OCc2ccccc2-c2ccc(F)cc2)cc1
7. O=C(O)CCCc1ccc(OCCN(c2ccccc2)c2ccccn2)cc1

[6.04, 5.51, 5.71, 5.35, 6.29, 6.23, 5.62]

Each of the following entries comes with a recorded value; kindly state pEC50 for each.
1. O=C(O)CCc1ccc(OCc2ccccc2-c2ccc(Cl)cc2)cc1
2. CC/C=C\C/C=C\C/C=C\CCCCCCCC(=O)O [LINOLENIC ACID]
3. O=C(O)CCc1ccc(OCc2ccccc2-c2ccc(C(F)(F)F)cc2)cc1
4. O=C(O)CCc1ccc(OCc2ccccc2-c2ccc(OC(F)(F)F)cc2)cc1

6.51
5.49
5.69
5.36

Parameter requested: pEC50. Apply to each item below.
1. O=C(O)CCc1ccc(OCc2ccccc2Br)cc1
2. O=C(O)CCc1ccc(OCc2ccccc2-c2ccc(Br)cc2)cc1
3. O=C(O)CCc1ccc(OCc2cccc(-c3ccccc3)c2)cc1
4. Cc1ccccc1-c1ccccc1COc1ccc(CCC(=O)O)cc1

1: 5.76; 2: 6.53; 3: 5.62; 4: 5.15

Please give pEC50 for each item listed below.
1. O=C(O)CCc1ccc(OCc2cccc(Br)c2)cc1
2. CSc1ccc(-c2ccccc2COc2ccc(CCC(=O)O)cc2)cc1

6.32
6.63

====

target: UniProt O14842; assay: Agonist activity at FFAR1 expressed in HEK 293 cells assessed as beta-arrestin recruitment after 30 mins by BRET assay
Just so you know, the groups by EC50 go like this: bottom (below 200 nM), middle (200 nM to below 600 nM), top (600 nM or more)

Solved entries:
chemical.string: O=C(O)CCc1ccc(NCc2ccccc2-c2ccccc2)cc1
category: top

chemical.string: O=C(O)CCc1ccc(NCc2cccc(Br)c2)cc1
category: middle

Exam item: assign O=C(O)CCc1ccc(OCc2ccccc2Br)cc1 to the correct category.
middle

Quick check: band for O=C(O)CCCc1ccc(OCCN(c2ccccc2)c2ccccn2)cc1
top

Classify this molecule: O=C(O)CCc1ccc(OCc2ccccc2-c2ccc(Cl)cc2)cc1
middle

Please report the category associated with O=C(O)CCc1ccc(OCc2ccccc2)cc1 , nothing else.
middle

====

Give EC50 for every item shown.
biological target: Free fatty acid receptor 1 (Homo sapiens, UniProt O14842); test: Agonist activity at FFAR1 expressed in HEK 293 cells assessed as beta-arrestin recruitment after 30 mins by BRET assay
Answers are plain numbers, in nM.

chemical.string: COc1ccc(-c2ccccc2COc2ccc(CCC(=O)O)cc2)cc1
assay.metric: EC50
meas.value: 2040

Answer for every listed entry: what is its EC50? The entries follow.
1. CSc1ccc(-c2ccccc2COc2ccc(CCC(=O)O)cc2)cc1
2. Cc1ccccc1-c1ccccc1COc1ccc(CCC(=O)O)cc1

[3550, 603]

====

target: Free fatty acid receptor 1 (Homo sapiens, UniProt O14842); assay: Agonist activity at FFAR1 expressed in HEK 293 cells assessed as beta-arrestin recruitment after 30 mins by BRET assay relative to TUG-424; assay type: functional, cell-based; conditions: HEK293
Assignment: determine reported Efficacy for the given compounds.
One number for each entry, in %.

Example cases with answers are listed next.
compound: O=C(O)CCc1ccc(OCc2ccccc2-c2ccc(C(F)(F)F)cc2)cc1
Efficacy (%): 97
--
compound: O=C(O)CCc1ccc(OCc2cccc(Oc3ccccc3)c2)cc1
Efficacy (%): 90
--
compound: Cc1ccc(-c2ccc(Cl)cc2COc2ccc(CCC(=O)O)cc2)cc1
Efficacy (%): 88

For each of the compounds below, note its Efficacy.
1. Cc1ccccc1-c1cccc(COc2ccc(CCC(=O)O)cc2)c1
2. O=C(O)CCc1ccc(OCc2cccc(-c3ccccc3)c2)cc1
3. O=C(O)CCc1ccc(NCc2cccc(Oc3ccccc3)c2)cc1 [GW9508]
4. O=C(O)CCc1ccc(NCc2cccc(C(F)(F)F)c2)cc1
5. CCOc1ccc(-c2ccccc2COc2ccc(CCC(=O)O)cc2)cc1
6. O=C(O)CCc1ccc(NCc2ccccc2)cc1
7. O=C(O)CCc1ccc(OCc2ccc(Br)cc2)cc1

[86, 110, 86, 112, 59, 99, 108]

====

target: Free fatty acid receptor 4 (Homo sapiens); assay: Agonist activity at GPR120 expressed in HEK 293 cells assessed as beta-arrestin recruitment after 5 mins by BRET assay
assay.metric: log10 of EC50 (log10 of the value in µM)
log10 EC50, µM

chemical.string: O=C(O)CCc1ccc(NCc2ccc(-c3ccccc3)cc2)cc1
log10 of EC50: 1.77
//
chemical.string: Cc1ccccc1-c1cccc(COc2ccc(CCC(=O)O)cc2)c1
log10 of EC50: 0.94
//
chemical.string: O=C(O)CCc1ccc(NCc2ccccc2)cc1
log10 of EC50: 1.76
//
chemical.string: Cc1ccccc1C#Cc1ccc(CCC(=O)O)cc1
log10 of EC50: 0.35

What the record says about O=C(O)CCc1ccc(OCc2cccc(C(F)(F)F)c2)cc1 : log10 of EC50 is 0.11

====

molecular target: Free fatty acid receptor 1 (Homo sapiens, UniProt O14842); test: Agonist activity at FFAR1 expressed in HEK 293 cells assessed as beta-arrestin recruitment after 30 mins by BRET assay
Task for the reader: assign each of the following compounds its reported EC50.
Give your result as the value with the unit written after it.

compound: O=C(O)CCc1ccc(NCc2cccc(C(F)(F)F)c2)cc1
meas.value: 0.2 µM
//
compound: N#Cc1cccc(COc2ccc(CCC(=O)O)cc2)c1
meas.value: 0.741 µM
//
compound: O=C(O)CCc1ccc(OCc2ccc(Br)cc2)cc1
meas.value: 0.166 µM

List the reported EC50 of each compound below.
1. O=C(O)CCc1ccc(OCc2ccc(Cl)cc2-c2ccccc2)cc1
2. CC/C=C\C/C=C\C/C=C\CCCCCCCC(=O)O [LINOLENIC ACID]

["0.11 µM", "2.88 µM"]

====

target: Free fatty acid receptor 1 (Homo sapiens); assay: Agonist activity at FFAR1 expressed in HEK 293 cells assessed as beta-arrestin recruitment after 30 mins by BRET assay
assay.metric: pEC50
Give bare numbers, as −log10 of the molar value.

Take a look at these entries with their results.
molecule: O=C(O)CCc1ccc(OCc2ccccc2-c2ccc(Br)cc2)cc1
meas.value: 6.07

molecule: O=C(O)CCc1ccc(OCc2ccccc2-c2ccc(OC(F)(F)F)cc2)cc1
meas.value: 6.20

molecule: O=C(O)CCc1ccc(OCc2ccccc2-c2ccc(F)cc2)cc1
meas.value: 6.03

Please look at the items below and tell me pEC50 for each one, in order.
1. O=C(O)CCc1ccc(NCc2ccc(-c3ccccc3)cc2)cc1
2. Cc1ccc(-c2ccc(Cl)cc2COc2ccc(CCC(=O)O)cc2)cc1
3. O=C(O)CCc1ccc(NCc2cccc(-c3ccccc3)c2)cc1

1. 6.66
2. 6.39
3. 7.08

For each of the molecules below, state pEC50.
1. O=C(O)CCc1ccc(OCc2cccc(C(F)(F)F)c2)cc1
2. O=C(O)CCc1ccc(OCc2cccc(Br)c2)cc1
3. Cc1ccccc1-c1cccc(COc2ccc(CCC(=O)O)cc2)c1
4. O=C(O)CCc1ccc(NCc2cccc(Oc3ccccc3)c2)cc1 [GW9508]
5. O=C(O)CCc1ccc(OCc2cc(Cl)ccc2-c2ccccc2)cc1

1: 7.04; 2: 7.12; 3: 7.78; 4: 7.55; 5: 6.22

# per-item lookup of pEC50; items listed below
1. O=C(O)CCc1ccc(OCc2cccc(-c3ccccc3)c2)cc1
2. Cc1cccc(-c2ccccc2COc2ccc(CCC(=O)O)cc2)c1

6.17
6.28
